This section presents binders with their documented Selectivity v. Coll-3 values.
target: gelatinase B (UniProt P14780 107-707, limits assumed); assay: cell-based or functional assay
Sequence (P14780 107-707 limits assumed): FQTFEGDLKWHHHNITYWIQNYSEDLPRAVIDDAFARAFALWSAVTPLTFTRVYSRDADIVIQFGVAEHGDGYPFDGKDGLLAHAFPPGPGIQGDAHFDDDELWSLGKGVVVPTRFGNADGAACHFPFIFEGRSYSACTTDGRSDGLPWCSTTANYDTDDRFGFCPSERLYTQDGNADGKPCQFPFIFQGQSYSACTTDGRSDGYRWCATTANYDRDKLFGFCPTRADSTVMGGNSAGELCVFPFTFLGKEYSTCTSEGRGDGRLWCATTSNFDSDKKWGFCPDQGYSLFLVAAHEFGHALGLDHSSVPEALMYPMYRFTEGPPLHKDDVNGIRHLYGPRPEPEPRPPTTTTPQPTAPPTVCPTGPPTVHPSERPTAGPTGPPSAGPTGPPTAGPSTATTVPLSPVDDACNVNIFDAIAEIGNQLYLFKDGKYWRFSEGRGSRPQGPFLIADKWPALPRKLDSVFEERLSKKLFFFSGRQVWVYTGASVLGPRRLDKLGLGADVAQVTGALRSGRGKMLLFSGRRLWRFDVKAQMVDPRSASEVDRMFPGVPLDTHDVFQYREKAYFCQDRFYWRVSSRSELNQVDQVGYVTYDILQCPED
*1 amine or outer side, *2 acyl side, *3 side chain or, on linkers, in order; H or OH if unused. [ ]: non-standard residue; d: D form. The star is where a group is joined. Dnp = O=[N+]([O-])c1ccc(*)c([N+](=O)[O-])c1; C(Me) = CSC[C@H](N[*:1])C(=O)[*:2]

BINDER	Selectivity v. Coll-3, unitless
Dnp-PINLHG-NH2 (SMILES CC[C@H](C)[C@H](NC(=O)[C@@H]1CCCN1c1ccc([N+](=O)[O-])cc1[N+](=O)[O-])C(=O)N[C@@H](CC(N)=O)C(=O)N[C@@H](CC(C)C)C(=O)N[C@@H](Cc1c[nH]cn1)C(=O)NCC(N)=O) [Dnp-PINLHG-NH2]	4
Dnp-GPFGLKG-NH2 (SMILES CC(C)C[C@H](NC(=O)CNC(=O)[C@H](Cc1ccccc1)NC(=O)[C@@H]1CCCN1C(=O)CNc1ccc([N+](=O)[O-])cc1[N+](=O)[O-])C(=O)N[C@@H](CCCCN)C(=O)NCC(N)=O) [Dnp-GPFGLKG-NH2]	3
Dnp-GPVNLHGR[C(Me)]-NH2 (SMILES CSC[C@H](NC(=O)[C@H](CCCNC(=N)N)NC(=O)CNC(=O)[C@H](Cc1c[nH]cn1)NC(=O)[C@H](CC(C)C)NC(=O)[C@H](CC(N)=O)NC(=O)[C@@H](NC(=O)[C@@H]1CCCN1C(=O)CNc1ccc([N+](=O)[O-])cc1[N+](=O)[O-])C(C)C)C(N)=O) [Dnp-…(Me)-NH2]	2
